# studyTarget: EGFR (form in the assay not stated) (human, UniProt P00533 25-645, limits assumed)
# assayInfo: ELISA, NEM conjugate 10 nM
measuredParameter: binding ratio vs parent P54AR4-83v2

- binder: "P54AR4-83v2 T68C, NEM conjugate (designed binder, NEM on Cys 68, His-tagged) LPAPKNLVVSEVTEDSARLSWDDPWAFYESFLIQYQESEKVGEAIVLTVPGSERSYDLTGLKPGTEYCVSIYGVHNVYKDTNMRGLPLSAIFTT"
  valueObserved: "0.83 ratio"
- binder: "P54AR4-83v2 N76C, NEM conjugate (designed binder, NEM on Cys 76, His-tagged) LPAPKNLVVSEVTEDSARLSWDDPWAFYESFLIQYQESEKVGEAIVLTVPGSERSYDLTGLKPGTEYTVSIYGVHCVYKDTNMRGLPLSAIFTT"
  valueObserved: "0.75 ratio"
- binder: "P54AR4-83v2 L88C, NEM conjugate (designed binder, NEM on Cys 88, His-tagged) LPAPKNLVVSEVTEDSARLSWDDPWAFYESFLIQYQESEKVGEAIVLTVPGSERSYDLTGLKPGTEYTVSIYGVHNVYKDTNMRGLPCSAIFTT"
  valueObserved: "0.95 ratio"
- binder: "P54AR4-83v2 D22C, NEM conjugate (designed binder, NEM on Cys 22, His-tagged) LPAPKNLVVSEVTEDSARLSWCDPWAFYESFLIQYQESEKVGEAIVLTVPGSERSYDLTGLKPGTEYTVSIYGVHNVYKDTNMRGLPLSAIFTT"
  valueObserved: "0.84 ratio"
- binder: "P54AR4-83v2 G60C, NEM conjugate (designed binder, NEM on Cys 60, His-tagged) LPAPKNLVVSEVTEDSARLSWDDPWAFYESFLIQYQESEKVGEAIVLTVPGSERSYDLTCLKPGTEYTVSIYGVHNVYKDTNMRGLPLSAIFTT"
  valueObserved: "0.86 ratio"
- binder: "P54AR4-83v2 V41C, NEM conjugate (designed binder, NEM on Cys 41, His-tagged) LPAPKNLVVSEVTEDSARLSWDDPWAFYESFLIQYQESEKCGEAIVLTVPGSERSYDLTGLKPGTEYTVSIYGVHNVYKDTNMRGLPLSAIFTT"
  valueObserved: "0.92 ratio"
- binder: "P54AR4-83v2 R84C, NEM conjugate (designed binder, NEM on Cys 84, His-tagged) LPAPKNLVVSEVTEDSARLSWDDPWAFYESFLIQYQESEKVGEAIVLTVPGSERSYDLTGLKPGTEYTVSIYGVHNVYKDTNMCGLPLSAIFTT"
  valueObserved: "0.91 ratio"
- binder: "P54AR4-83v2 T13C, NEM conjugate (designed binder, NEM on Cys 13, His-tagged) LPAPKNLVVSEVCEDSARLSWDDPWAFYESFLIQYQESEKVGEAIVLTVPGSERSYDLTGLKPGTEYTVSIYGVHNVYKDTNMRGLPLSAIFTT"
  valueObserved: "0.87 ratio"
